- SYSTEM UNDER TEST: Upc2 (Saccharomyces cerevisiae)
- Sequence: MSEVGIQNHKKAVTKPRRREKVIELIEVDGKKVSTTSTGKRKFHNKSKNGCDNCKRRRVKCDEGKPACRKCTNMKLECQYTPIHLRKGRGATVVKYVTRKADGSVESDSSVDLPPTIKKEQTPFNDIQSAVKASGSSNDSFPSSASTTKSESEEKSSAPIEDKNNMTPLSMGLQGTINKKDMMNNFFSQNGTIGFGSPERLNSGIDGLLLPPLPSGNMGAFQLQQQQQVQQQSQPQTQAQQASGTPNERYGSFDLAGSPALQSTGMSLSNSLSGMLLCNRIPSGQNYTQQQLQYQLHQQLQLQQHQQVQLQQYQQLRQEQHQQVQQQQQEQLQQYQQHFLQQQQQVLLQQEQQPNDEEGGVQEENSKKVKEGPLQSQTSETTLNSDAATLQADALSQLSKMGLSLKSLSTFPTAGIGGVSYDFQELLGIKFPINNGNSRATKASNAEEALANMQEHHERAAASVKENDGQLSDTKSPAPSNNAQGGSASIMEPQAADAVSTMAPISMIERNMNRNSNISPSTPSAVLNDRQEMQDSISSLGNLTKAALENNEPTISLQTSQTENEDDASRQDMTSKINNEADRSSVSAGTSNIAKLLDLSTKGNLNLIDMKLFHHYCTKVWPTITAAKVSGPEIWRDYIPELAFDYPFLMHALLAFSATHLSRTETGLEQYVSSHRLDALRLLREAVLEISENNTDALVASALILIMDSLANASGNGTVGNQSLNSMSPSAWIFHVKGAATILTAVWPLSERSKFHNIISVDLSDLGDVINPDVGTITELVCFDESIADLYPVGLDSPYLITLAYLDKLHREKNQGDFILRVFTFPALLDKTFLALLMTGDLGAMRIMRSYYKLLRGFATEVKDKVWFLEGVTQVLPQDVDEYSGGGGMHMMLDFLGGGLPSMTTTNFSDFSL
- RECORDED CONDITIONS: 200 nM
MEASUREMENT NAME: binding signal (PBM E-score (-0.5 to 0.5))

INSERT INTO measurements (sequence_entry, system_under_test, numeric_readout) VALUES
  ('ATCGTATA (double strand) [8-mer ATCGTATA]', 'Upc2 (Saccharomyces cerevisiae)', 0.493),
  ('CTATACGA (double strand) [8-mer CTATACGA]', 'Upc2 (Saccharomyces cerevisiae)', 0.498),
  ('ATCGTTTA (double strand) [8-mer ATCGTTTA]', 'Upc2 (Saccharomyces cerevisiae)', 0.495),
  ('CTCGTTTA (double strand) [8-mer CTCGTTTA]', 'Upc2 (Saccharomyces cerevisiae)', 0.495),
  ('GTCGTATA (double strand) [8-mer GTCGTATA]', 'Upc2 (Saccharomyces cerevisiae)', 0.496),
  ('ATAAACGA (double strand) [8-mer ATAAACGA]', 'Upc2 (Saccharomyces cerevisiae)', 0.494),
  ('CTAAACGA (double strand) [8-mer CTAAACGA]', 'Upc2 (Saccharomyces cerevisiae)', 0.496),
  ('GTCGTTTA (double strand) [8-mer GTCGTTTA]', 'Upc2 (Saccharomyces cerevisiae)', 0.494),
  ('TCGTTTAA (double strand) [8-mer TCGTTTAA]', 'Upc2 (Saccharomyces cerevisiae)', 0.497),
  ('TATACGAA (double strand) [8-mer TATACGAA]', 'Upc2 (Saccharomyces cerevisiae)', 0.495),
  ('GTATACGA (double strand) [8-mer GTATACGA]', 'Upc2 (Saccharomyces cerevisiae)', 0.495),
  ('TAAACGAA (double strand) [8-mer TAAACGAA]', 'Upc2 (Saccharomyces cerevisiae)', 0.494),
  ('TCGTATAA (double strand) [8-mer TCGTATAA]', 'Upc2 (Saccharomyces cerevisiae)', 0.497);

// provenance: paper PMC3334620
